# Test system: MV4-11
# Parameters: species or system AML cell lines (8); Primary HTS, single concentration about 10 uM, Cell Titer Glo viability; log10 luminescence, per cent inhibition relative to cycloheximide control
# Condition info: 72 h, relative to cycloheximide control, log10 luminescence, inhibitor, MV4-11 %inh, 10 µM
Reported property: MV4-11 %inh (%)
Write down the numeric answer in % and omit the unit.

Recorded MV4-11 %inh, per entry:
CCCCC(=O)N(Cc1ccc(-c2ccccc2-c2nnn[nH]2)cc1)[C@H](C(=O)O)C(C)C: -0.8771
COc1cc2c(cc1O)CC[C@@H]1[C@@H]2CC[C@]2(C)[C@@H](O)CC[C@@H]12: 76.13
C[C@H]1O[C@@H](O[C@H]2[C@@H](O)C[C@H](O[C@H]3[C@@H](O)C[C@H](O[C@H]4CC[C@@]5(C)[C@H](CC[C@@H]6[C@@H]5C[C@@H](O)[C@]5(C)[C@@H](C7=CC(=O)OC7)CC[C@]65O)C4)O[C@@H]3C)O[C@@H]2C)C[C@H](O)[C@@H]1O: 85.53
C[C@H](CS)C(=O)N1CCC[C@H]1C(=O)O [SJ000286908-7, CAPTOPRIL]: 2.877
CCCCNc1cc(C(=O)O)cc(S(N)(=O)=O)c1Oc1ccccc1 [SJ000285893-7, BUMETANIDE]: -2.25

Just so you know, measured MV4-11 %inh for Nc1ccc(S(=O)(=O)Nc2ccccn2)cc1 [SJ000285852-4, SULFAPYRIDINE] came out at 0.2362
